test readout: melting point

Consider the worked cases shown below.
compound: CC(C)(C)OC(=O)CON=C(C(=O)O)c1cccs1
observed result: 88.3 to 91.3 °C

compound: CCCCc1ncc(C=C2C(=O)NC(=O)N2CCCC)n1Cc1ccccc1C(=O)O
observed result: 287 to 289 °C

compound: O=CNc1cc(Cl)ccc1C=O
observed result: 131 to 136 °C

compound: COc1cc(N)c(Cl)cc1C(=O)NCC1CCN(CCCCCC(=O)c2cccs2)CC1
observed result: 115 to 118 °C

compound: NCCc1ccc(C(N)=O)s1
observed result: 134 to 136 °C

compound: O=[N+]([O-])c1ccc2c(c1)NCc1ccccc1O2
observed result: 154 to 156 °C

compound: COc1cc(C(=O)Nc2c(Cl)cncc2Cl)ccc1OC(F)F
observed result: 170 °C

compound: Nc1nc2c(ncn2OC(CO)COCP(=O)(O)O)c(=O)[nH]1 (stereo unspecified)
observed result: > 300 °C

Tell me the measured melting point of Cc1cccc(C)c1C(=O)Oc1cc([N+](=O)[O-])cc([N+](=O)[O-])c1OC(=O)c1c(C)cccc1C , please.
175 to 178 °C

Which melting point reading was recorded for the compound C=CC[C@@H](C(=O)N[C@H](C(=O)OCc1ccccc1)C(C)(C)C)[C@@H]1OC(C)(C)OC1=O ?
67 to 70 °C

Which melting point is reported for this compound? N#Cc1ccc(-c2ncccc2O)cc1
245 to 246 °C

# melting point lookup, item NC1=Nc2ccc([N+](=O)[O-])cc2C(c2ccccc2F)=NC1
225 to 227 °C

What melting point value was documented for this compound, COC(=O)N[C@@H](Cc1ccccc1)[C@H](O)CN1C[C@H]2CCCC[C@H]2C[C@H]1C(=O)NOC(C)(C)C ?
194 to 195 °C

I'd like to know its melting point. The compound in question is COCCOc1cc(OC)c2c(=O)[nH]c(-c3ccnc(C)c3)nc2c1
260 to 262 °C

Which melting point reading was recorded for the compound O=[N+]([O-])c1ccc(C2Nc3ccccc3-c3c([N+](=O)[O-])cnn32)cc1 (stereo unspecified) ?
190 to 191 °C

Entry O=C(O)CCC(O)c1ccc(-c2ccc(F)cc2Cl)cc1 (stereo unspecified) : reported melting point = ?
78 to 79 °C

I am curious: what melting point value has been reported for Cc1nc(-c2ccc(C(F)(F)F)cc2)oc1CSc1ccc(CC(=O)O)cc1 ?
135 to 136 °C

Endpoint output: melting point of O=C(CC(c1ccccc1)c1ccccc1)N1CCN(CCc2cc3ccccc3o2)CC1 . Value?
123 to 124 °C

May I ask what melting point has been recorded for CC(C)[C@@H]1C[C@@H](CO)NC1=O ?
55.9 °C

// query melting point value for entry NS(=O)(=O)Cc1nc(-c2ccc(Cl)c(Cl)c2)cs1
187 to 190 °C

Suppose we examine the compound CCc1nc(NC(C)C)c([N+](=O)[O-])c(SC2CCCCC2)n1 ; what melting point value has been reported?
69 to 71 °C

* * *

Property: melting point; scope: individual compounds

Sample answers from the record:
compound: CCOC(=O)C1=C(C)NC(C)=C(C(=O)OC)C1c1ccccc1Cl (stereo unspecified)
observed result: 125 to 127 °C

compound: Nc1ccc(NC(=O)CN2CCCCC2)cc1
observed result: 106 to 107 °C

compound: Cn1c(=O)c(=NO)nc(-c2ccccc2)c2ccccc21
observed result: 239 to 242 °C

compound: Cc1cc(=O)c2cc(Oc3ccccc3)c(NS(C)(=O)=O)cc2o1
observed result: 186 to 187 °C

compound: Clc1ncc(-c2ccccc2)cn1
observed result: 130 to 132 °C

We next turn to a different compound, shown below.
Give its melting point value. Item: CC(=O)Oc1c(-c2ccc(=O)[nH]n2)cc(Br)c(C)c1Br
220 °C

* * *

test readout: melting point

compound: O=[N+]([O-])c1cc(C(F)(F)F)cc2sc(=S)sc12
melting point: 163 to 165 °C
--
compound: CC(C)c1nc(Cl)c2c(-c3ccc([N+](=O)[O-])o3)nn(C)c2n1
melting point: 112 °C
--
compound: COC(=O)C1(Nc2cc(Cl)c(Cl)cc2N)CCSC1 (stereo not given)
melting point: 162 °C
--
compound: C=Cc1ccc(Nc2c(C(=O)NOCCO)ccc(F)c2F)c(F)c1
melting point: 134 to 137 °C
--
compound: CCCCc1nn2c(C)c(C)nc2n1Cc1ccc(-c2ccccc2-c2nnn[nH]2)cc1
melting point: 138 to 141 °C

Requested field: melting point. Item: COc1ccc2c(c1)CCC1C2CCC2(C)C(=O)CCC12 (stereo not given)
128 to 131 °C

Which melting point is reported for this compound? CCOC(=O)c1c(OC(=O)CCl)c2ccccc2c2nc3ccccc3nc12
208 to 209 °C

Any idea what its melting point is? The compound is CC(C)c1cn2ccccc2c1S(=O)(=O)c1ccc(OCC2CO2)cc1 (stereo not given)
110 to 111 °C

Which melting point reading was recorded for the compound CN(C)C(=O)ON=C1SC(=C(C#N)C#N)SC1(C)C ?
175 to 177 °C

Which melting point value is on record for Cc1ccc(C=Cc2ccc(Br)cc2)cc1 ?
215 °C

* * *

Catalogue of melting point readings, one per entry.

Example entries begin here.
molecule: COC(=O)CCCCCCCCOC1OC(CO)C(O)C(O)C1NC(C)=O (centres undefined)
observed result: 178 to 180 °C

molecule: CCCOc1ccc(S(=O)(=O)N2CCN(CC(=O)OCC)CC2)cc1-c1nc2cc3nc[nH]c3cc2c(=O)[nH]1
observed result: 188 to 192 °C

molecule: COc1ccc2c3c(nn(CCO)c13)-c1ccccc1N2
observed result: 275 °C

molecule: CC(=O)c1cc(=O)n(CCC(C(=O)NO)N(C)S(=O)(=O)c2ccc(Oc3ccccc3)cc2)c(=O)[nH]1 (centres undefined)
observed result: 167 to 169 °C

molecule: COc1cc2nc(-c3cc(C)c(OCC(N)=O)c(C)c3)[nH]c(=O)c2cc1OC
observed result: 354 to 356 °C

What measured melting point goes with O=C(O)C(=O)c1ccc(OCCOc2ccc3ccccc3c2)cc1 ?
144 to 145 °C

# query: melting point of entry C=CCOC(=O)c1ccc(N=C(NC)c2ccc(OC)c(C34CC5CC(CC(C5)C3)C4)c2)cc1
77 to 79 °C

Given the entry CC(C)(C)OC(=O)NC(NC(=O)OC(C)(C)C)Nc1ccc(CCc2csc(NC(=O)c3ccccc3)n2)cc1 , report its measured melting point.
143 to 144 °C

Sample CC(=O)NC1CCCCc2sccc21 (centres undefined) — what was its melting point?
179 to 180 °C

* * *

test readout: melting point

compound: Cc1nn(-c2cc(Oc3ccc([N+](=O)[O-])cc3)c(Cl)cc2F)c(=O)n1C(F)F
melting point: 115 to 117 °C

Which melting point reading was recorded for the compound Cc1cc(=O)n2nc(SCc3ccc(Cl)cc3)sc2n1 ?
138 to 140 °C

Which melting point reading was recorded for the compound CC(C)CC(=O)Nc1ccc2oc3c(c2c1)CCC3 ?
162 to 163 °C

I am curious: what melting point value has been reported for COCCOc1ccc(/C=C/c2cc(/C=C/c3ccc4cc[nH]c4c3)n[nH]2)c(OC)c1 ?
90 to 96 °C

Fill blank: measured melting point of the compound Sc1nnc(-c2cccnc2)o1 is ____.
237 °C

Requested read-out: melting point. Entry: CSc1nn2c(O)cc(O)nc2c1S(=O)(=O)c1ccccc1
> 230 °C

Name the reported melting point value associated with the compound CS(=O)(=O)Nc1ccc(OCCCNC(=O)c2ccc(Br)cc2)cc1
208 to 209 °C

Please look up its melting point: COc1cccc(-c2ncc3n2CC(=O)N(C)C3)c1
115 to 117 °C

What does the record list as melting point for CNc1nc(-c2cccc(-c3cncc(OC)c3)c2)c2cc(OC)c(OC)cc2n1 ?
225 to 227 °C

Request the reported melting point associated with CN1CCN(c2ccccc2C(F)(F)F)C(C2=NCCN2)C1 (stereo unspecified)
163 to 165 °C

Item C#CCN(c1ccc(C(=O)OC(C)(C)C)cc1)C1CCc2cc3nc(C)[nH]c(=O)c3cc21 (racemic) has what recorded melting point?
244 to 246 °C

I would be grateful if you could share the reported melting point for COc1ccc2c(O)c(-c3ccccc3OC)c(=O)[nH]c2c1 .
> 300 °C

Returns the measured melting point for the input compound. Input: COC(=O)c1ccccc1OCCCOc1cc2c(cc1O)CCO2
96 to 97 °C

Record request: melting point value, item Cc1cn(C(C)(C)C(=O)N(C)C)nc1-c1ccccc1Cl
175 to 176 °C

* * *

Reported melting point values for the following compounds.

compound: CSC1C(=O)Nc2ccc(Oc3ccc(Cl)cc3)cc21 (configuration not stated)
melting point: 166 to 169 °C
--
compound: CCOC(=O)CNC(=S)NC(Cc1ccc(OC)cc1)=Nc1ccccc1
melting point: 120 to 121 °C
--
compound: O=C1CCc2c(Br)cc([N+](=O)[O-])c(O)c21
melting point: 149 to 151 °C

Fill in the blank: the reported melting point of CC(Br)C(C)N1C(=O)C2(OCCCO2)c2cc(S(=O)(=O)N3CCCC3)ccc21 (configuration not stated) is ____.
152 to 153 °C

// melting point lookup, key: COC(=O)c1ncc(C(=O)O)c2ccccc12
189 °C

melting point lookup needed for CS(=O)(=O)N1CCC(C2=C(C#N)C(c3cccc(C#N)c3Br)c3c[nH]nc3N2)CC1 (configuration not stated) , thanks.
> 280 °C

What value of melting point has been reported for the following compound? OC(Cc1ccc(Cl)cc1)Cn1cncn1 (configuration not stated)
104 to 106 °C

May I ask what melting point has been recorded for N#CSc1cc(-c2ccccc2)c(O)c(-c2ccccc2)c1 ?
104 to 106 °C

Field request: melting point | item: COc1ccc(C#Cc2ccccc2)c(CC(C)=O)c1
60 to 62 °C

I am curious: what melting point value has been reported for c1ccc2c(c1)C[C@H]1CSC(=Nc3csc4cnccc34)N1C2 ?
180 °C

Please look up its melting point: CCCCc1cc2c(=O)n3cc(C#N)ccc3nc2s1
216 to 217 °C
